Data origin, for the record: patent US20240026019A1

Property: koff; scope: individual binders
Biological target: T1, CYNO-TNFR2-His (cynomolgus monkey TNFR2, His tag) (cynomolgus monkey, UniProt A0A2K5VET2 132-366)
T1 construct: Soluble antigen of the ForteBio assay; also called cTNFR2; not shown: His tag
T1 sequence: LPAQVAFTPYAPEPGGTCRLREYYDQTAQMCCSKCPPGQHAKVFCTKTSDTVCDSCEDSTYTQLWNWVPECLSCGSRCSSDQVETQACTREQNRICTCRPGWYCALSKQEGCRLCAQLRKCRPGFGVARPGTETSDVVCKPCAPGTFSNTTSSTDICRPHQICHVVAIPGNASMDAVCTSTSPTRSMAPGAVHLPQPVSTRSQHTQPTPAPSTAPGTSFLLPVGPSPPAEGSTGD
Experiment: BLI (ForteBio), antibody on sensor, 100 nM CYNO-TNFR2-His in solution, 1:1 model
Express your answer in s⁻¹, writing the number without its unit.

A selection of reference data follows.
BINDER	UNIT_OF_MEASUREMENT	RESULT_VALUE
chimeric antibody 3C4 (antibody, human IgG1, kappa, V domains shown) VH: QVQLQQSGPELVKPGASVTISCKASDYSFTNYYIHWVKQRPGQGLEWIGWIYPGNVITKYHEKFKGKAILTADTSSTTAYMQLNSLTSEDSAVYFCARSRATGYFDYWGQGTTLTVSS VL: DIQMTQTTSSLSASLGDRVTISCRASQDIRNYLNWFQQKPDGTIKLLIYYTSRLHSGVPSRFSGSGSGTDYSLTISNLEQEDMATYFCQQFNTLPWTFGGGTKLEIKR	s⁻¹	0.00201
chimeric antibody 72G8 (antibody, human IgG1, kappa, V domains shown) VH: EVQLQQSGAELARPGASVMLSCKASGYTFTSYWMQWLKQRPGQGLEWIGAIYPGDGDTRYTQKFKGKATLTADKSSSTAYMQLSSLASEDSAVYYCVRDDGLYYAMDYWGQGTSVTVSS VL: QIVLTQSPTIMSASLGERVTMTCTASSSVSSSYLHWYQQKPGSSPKLWIYSTSNLASGVPARFSGSGSGTSYSLTISSMEAEDAATYYCHQYHRSPPTFGGGTKLEIKR	s⁻¹	0.00509
chimeric antibody 69B1 (antibody, human IgG1, kappa, V domains shown) VH: QIQLVQSGPELKKPGETVKISCKASGYTFTDYSMNWVKQAPGKGLKWMGWLNTETGEPIYADDFKGRFVFSLETSASTAYLEINNLNDEDTATYFCAREAIYYGTSYVLDYWGQGTSVTVSS VL: DIVLTQSPASLAVSLGQRATISCRASESVEYYGTNFMQWYQQKPGQPPKLLIYSASNVESGVPARFSGSGSGTDFSLNIHPVEEDDIAVYFCQQSRKDPSTFGEGTNLEIKR	s⁻¹	0.00198

Let us move to another entry and its koff.
Please report koff for the following binder: positive control antibody OPI (humanized antibody SBT-002e in WO 2017083525) (antibody, V domains shown, also called Benchmark OPI) VH: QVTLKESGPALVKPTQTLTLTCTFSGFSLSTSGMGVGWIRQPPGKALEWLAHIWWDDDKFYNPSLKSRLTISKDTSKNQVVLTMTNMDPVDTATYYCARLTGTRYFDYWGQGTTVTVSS VL: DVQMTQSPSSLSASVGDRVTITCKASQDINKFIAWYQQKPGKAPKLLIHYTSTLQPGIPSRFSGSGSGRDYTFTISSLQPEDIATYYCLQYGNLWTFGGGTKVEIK 0.000328
